- experimental.system: human mutant SOD1^G85R (human, fluorescently labeled (NanoTemper BLUE protein-labeling kit) where it was the labelled partner in MST)
- Sequence (chain, as listed by the source G85R): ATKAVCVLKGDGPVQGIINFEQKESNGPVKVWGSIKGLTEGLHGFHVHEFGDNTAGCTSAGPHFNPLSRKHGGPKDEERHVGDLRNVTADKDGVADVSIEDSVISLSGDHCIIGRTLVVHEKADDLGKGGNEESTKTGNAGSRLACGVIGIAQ
- experiment.description: MST
endpoint: pEC50
Scale explanation: pEC50 corresponds to minus log10 of a concentration expressed in moles per litre.

Prompt line: # query: pEC50 of entry MAVPPTYADLGKSARDVFTKGYGFGL [1-26 N-Terminal peptide of VDAC1]
Response line: 5.43
